- method_description: Drug concentration in golden hamster caecum at 6.25 mg/kg, po measured after 1 hr by LC-MS/MS analysis
- Type: ADME, organism-based, Mesocricetus auratus
- study_conditions: read-out: Ct
Reported concentration at 1 h is given for each of the following compounds.

compound	unit_of_measurement	concentration at 1 h
CO/C(C)=C1/NC(=O)[C@H]([C@@H](C)O)NC(=O)c2csc(n2)-c2cc(O)c(-c3nc(C(=O)NCCCN4CCOCC4)cs3)nc2-c2csc(n2)[C@@H]2COC(=O)c3c4c5c(cccc5n3O)COC(=O)[C@@H](O[C@H]3C[C@](C)(O)[C@H](N(C)C)[C@H](C)O3)[C@@H](OC4)[C@H](NC(=O)c3csc1n3)c1nc(cs1)C(=O)N2	µM	6.56
C=C(NC(=O)c1csc(-c2nc3c(cc2O)-c2nc(cs2)C(=O)N[C@@H]([C@@H](C)O)C(=O)N/C(=C(\C)OC)c2nc(cs2)C(=O)N[C@@H]2c4nc(cs4)C(=O)N[C@@H](COC(=O)c4c5c6c(cccc6n4O)COC(=O)[C@@H](O[C@H]4C[C@](C)(O)[C@H](N(C)C)[C@H](C)O4)[C@H]2OC5)c2nc-3cs2)n1)C(N)=O [MJ347-81F4 A]	µM	5.4

----------
# MIC50 values compiled below
- System: Clostridioides difficile
- method_description: Antibacterial activity against Clostridioides difficile assessed as inhibition of bacterial growth by CLSI based agar dilution susceptibility analysis
- Type: functional
assay_endpoint: MIC50 (µg/mL)

compound	assay_endpoint	unit_of_measurement	op	recorded_result
CO/C(C)=C1/NC(=O)[C@H]([C@@H](C)O)NC(=O)c2csc(n2)-c2cc(OC)c(-c3nc(C(=O)NCCCN4CCOCC4)cs3)nc2-c2csc(n2)[C@@H]2COC(=O)c3c4c5c(cccc5n3O)COC(=O)[C@@H](O[C@H]3C[C@](C)(O)[C@H](N(C)C)[C@H](C)O3)[C@@H](OC4)[C@H](NC(=O)c3csc1n3)c1nc(cs1)C(=O)N2	MIC50	µg/mL	≤	0.015
C=C(NC(=O)c1csc(-c2nc3c(cc2O)-c2nc(cs2)C(=O)N[C@@H]([C@@H](C)O)C(=O)N/C(=C(\C)OC)c2nc(cs2)C(=O)N[C@@H]2c4nc(cs4)C(=O)N[C@@H](COC(=O)c4c5c6c(cccc6n4O)COC(=O)[C@@H](O[C@H]4C[C@](C)(O)[C@H](N(C)C)[C@H](C)O4)[C@H]2OC5)c2nc-3cs2)n1)C(N)=O [MJ347-81F4 A]	MIC50	µg/mL	=	0.03
CCc1c(Cl)c(O)c(Cl)c(O)c1C(=O)O[C@H]1[C@H](O)[C@H](OC)[C@H](OC/C2=C\C=C\C[C@H](O)/C(C)=C/[C@H](CC)[C@@H](O[C@@H]3OC(C)(C)[C@@H](OC(=O)C(C)C)[C@H](O)[C@@H]3O)/C(C)=C/C(C)=C/C[C@@H]([C@@H](C)O)OC2=O)O[C@@H]1C [FIDAXOMICIN]	MIC50	µg/mL	=	0.5

----------
List of MIC50 values.
- Tested on: Clostridioides difficile
- method_description: Antibacterial activity against Clostridioides difficile assessed as inhibition of bacterial growth by CLSI based agar dilution susceptibility analysis
- Format: functional

chem_smiles	measured_target	op	MIC50, µg/mL
CO/C(C)=C1/NC(=O)[C@H]([C@@H](C)O)NC(=O)c2csc(n2)-c2cc(O)c(-c3nc(C(=O)NCCCN4CCOCC4)cs3)nc2-c2csc(n2)[C@@H]2COC(=O)c3c4c5c(cccc5n3O)COC(=O)[C@@H](O[C@H]3C[C@](C)(O)[C@H](N(C)C)[C@H](C)O3)[C@@H](OC4)[C@H](NC(=O)c3csc1n3)c1nc(cs1)C(=O)N2	Clostridioides difficile	=	0.03
C=C(NC(=O)c1csc(-c2nc3c(cc2O)-c2nc(cs2)C(=O)N[C@@H]([C@@H](C)O)C(=O)N/C(=C(\C)OC)c2nc(cs2)C(=O)N[C@@H]2c4nc(cs4)C(=O)N[C@@H](COC(=O)c4c5c6c(cccc6n4O)COC(=O)[C@@H](O[C@H]4C[C@]6(C)OCN(C)[C@@H]6[C@H](C)O4)[C@H]2OC5)c2nc-3cs2)n1)C(N)=O	Clostridioides difficile	=	0.06
CN[C@H](CC(C)C)C(=O)N[C@H]1C(=O)N[C@@H](CC(N)=O)C(=O)N[C@H]2C(=O)N[C@H]3C(=O)N[C@H](C(=O)N[C@H](C(=O)O)c4cc(O)cc(O)c4-c4cc3ccc4O)[C@H](O)c3ccc(c(Cl)c3)Oc3cc2cc(c3O[C@@H]2O[C@H](CO)[C@@H](O)[C@H](O)[C@H]2O[C@H]2C[C@](C)(N)[C@H](O)[C@H](C)O2)Oc2ccc(cc2Cl)[C@H]1O	Clostridioides difficile	=	0.25
Cc1ncc([N+](=O)[O-])n1CCO	Clostridioides difficile	≤	0.015
